# key: entry, value: pIC50
- test-system: human TLR8 (Homo sapiens, UniProt Q9NR97)
- experiment: TLR8 inhibition reporter assay (HEK-Blue SEAP)
- protocol-conditions: HEK-Blue cells overexpressing human TLR8, stimulated with R848 15.9 µM, 22 h incubation
pIC50 (log units): -log10 of the concentration in mol/L.

Check out these entries, answers already filled in.
>>> measured_value("COc1cc(-c2cc3[nH]c4ccc(C5CN(C(=O)CN(C)C)C5)cc4c3c(C)c2C)cn2ncnc12 [Example 35]")
8.48
>>> measured_value("COc1cc(-c2cc3[nH]c4ccc(C5CN(C6CCOCC6)C5)cc4c3c(C)c2C)cn2ncnc12 [Example 37]")
8.89
>>> measured_value("COc1cc(-c2cc3[nH]c4ccc(C5CNC5)cc4c3c(C)c2C)cn2ncnc12 [Example 29]")
9.00

[Q] Please report pIC50 with human TLR8 (Homo sapiens, UniProt Q9NR97) for item Cc1c(-c2cc(C)c3c(c2)[nH]c2ccc(C4CCN(CC(C)(C)O)CC4)cc23)cn(C)c(=O)c1C [Example 18] .
[A] 9.05

[Q] Report pIC50 from human TLR8 (Homo sapiens, UniProt Q9NR97) testing of c1cc(-c2ccc3c(c2)[nH]c2ccc(C4CCNCC4)cc23)ccn1 [Example 9]
[A] 7.21

[Q] Provide pIC50, recorded with human TLR8 (Homo sapiens, UniProt Q9NR97), of Cc1cc2c(cc1-c1cc(C)c3ncnn3c1)[nH]c1ccc(C3CCNCC3)cc12 [Example 14]
[A] 8.85

[Q] State recorded pIC50 with human TLR8 (Homo sapiens, UniProt Q9NR97), entry c1cncc(-c2ccc3c(c2)[nH]c2ccc(C4CCNCC4)cc23)c1 [Example 4] , no comment.
[A] 5.74

---

- test-system: human TLR8 (Homo sapiens)
- Construct: host or cells: HEK-Blue cells
- Sequence (Q9NR97 27-1041): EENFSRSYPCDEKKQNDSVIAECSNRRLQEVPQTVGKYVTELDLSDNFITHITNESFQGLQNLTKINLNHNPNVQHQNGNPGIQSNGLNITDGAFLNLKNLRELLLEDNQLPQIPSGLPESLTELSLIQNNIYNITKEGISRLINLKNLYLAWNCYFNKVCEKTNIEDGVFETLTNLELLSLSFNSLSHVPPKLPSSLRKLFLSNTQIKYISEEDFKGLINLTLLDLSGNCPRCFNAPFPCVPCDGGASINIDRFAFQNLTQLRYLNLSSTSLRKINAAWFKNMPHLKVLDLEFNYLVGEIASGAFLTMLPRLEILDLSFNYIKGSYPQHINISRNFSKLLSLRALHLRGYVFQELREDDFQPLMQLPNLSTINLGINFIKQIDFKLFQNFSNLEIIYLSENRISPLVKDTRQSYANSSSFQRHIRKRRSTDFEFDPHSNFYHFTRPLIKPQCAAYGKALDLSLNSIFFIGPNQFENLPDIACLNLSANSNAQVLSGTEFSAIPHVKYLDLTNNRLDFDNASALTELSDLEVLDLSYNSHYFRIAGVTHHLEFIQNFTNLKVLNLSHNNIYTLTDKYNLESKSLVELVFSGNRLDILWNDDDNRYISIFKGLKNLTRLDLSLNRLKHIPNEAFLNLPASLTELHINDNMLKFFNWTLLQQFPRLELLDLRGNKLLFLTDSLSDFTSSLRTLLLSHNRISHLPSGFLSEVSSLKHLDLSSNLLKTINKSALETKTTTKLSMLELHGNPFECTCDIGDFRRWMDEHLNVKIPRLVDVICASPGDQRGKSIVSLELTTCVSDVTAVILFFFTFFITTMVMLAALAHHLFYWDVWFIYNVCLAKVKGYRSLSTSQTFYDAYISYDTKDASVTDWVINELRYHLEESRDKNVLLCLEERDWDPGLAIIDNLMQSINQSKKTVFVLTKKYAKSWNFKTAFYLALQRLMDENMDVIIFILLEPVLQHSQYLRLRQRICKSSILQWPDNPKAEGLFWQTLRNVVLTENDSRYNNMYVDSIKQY
- experiment: TLR8 inhibition reporter assay (HEK-Blue SEAP)
- Type: cell-based
- protocol-conditions: HEK-Blue cells overexpressing human TLR8, stimulated with R848 15.9 µM, 22 h incubation
We begin with a simple list: items and their reported IC50.
Numbers only here, please. The scale is nM.

>>> measured_value("Cc1cc(-c2cc(C)c3ncnn3c2)cc2[nH]c3ccc(C4CCNCC4)cc3c12")
6.8
>>> measured_value("Cc1noc(C)c1-c1ccc2c(c1)[nH]c1ccc(C3CCNCC3)cc12")
209

[Q] Answer with reported IC50 of `Cn1cc(-c2ccc3c(c2)[nH]c2ccc(C4CCNCC4)cc23)cn1`
[A] 861

[Q] Respond only with IC50 recorded for `COc1cc(-c2cc3[nH]c4ccc(C5CCNCC5)cc4c3cc2C)cn2ncnc12`
[A] 1.4

[Q] Look up and state reported IC50 for COc1cc(-c2cc3[nH]c4ccc(C5CCCNC5)cc4c3c(C)c2C)cn2ncnc12 (centres unmarked)
[A] 1.6

[Q] Give IC50 for `Cc1c(-c2ccc3c(c2)[nH]c2ccc(C4CCNCC4)cc23)cn(C)c(=O)c1C`
[A] 29

[Q] Identify IC50 associated with the compound COc1cc(-c2cc3[nH]c4ccc(C5CCCN(C6COC6)C5)cc4c3c(C)c2C)cn2ncnc12 (centres unmarked)
[A] 2.2

---

- test-system: human TLR7 (Homo sapiens, UniProt Q9NYK1)
- Construct: host or cells: HEK-Blue cells
- Sequence (Q9NYK1 27-1049): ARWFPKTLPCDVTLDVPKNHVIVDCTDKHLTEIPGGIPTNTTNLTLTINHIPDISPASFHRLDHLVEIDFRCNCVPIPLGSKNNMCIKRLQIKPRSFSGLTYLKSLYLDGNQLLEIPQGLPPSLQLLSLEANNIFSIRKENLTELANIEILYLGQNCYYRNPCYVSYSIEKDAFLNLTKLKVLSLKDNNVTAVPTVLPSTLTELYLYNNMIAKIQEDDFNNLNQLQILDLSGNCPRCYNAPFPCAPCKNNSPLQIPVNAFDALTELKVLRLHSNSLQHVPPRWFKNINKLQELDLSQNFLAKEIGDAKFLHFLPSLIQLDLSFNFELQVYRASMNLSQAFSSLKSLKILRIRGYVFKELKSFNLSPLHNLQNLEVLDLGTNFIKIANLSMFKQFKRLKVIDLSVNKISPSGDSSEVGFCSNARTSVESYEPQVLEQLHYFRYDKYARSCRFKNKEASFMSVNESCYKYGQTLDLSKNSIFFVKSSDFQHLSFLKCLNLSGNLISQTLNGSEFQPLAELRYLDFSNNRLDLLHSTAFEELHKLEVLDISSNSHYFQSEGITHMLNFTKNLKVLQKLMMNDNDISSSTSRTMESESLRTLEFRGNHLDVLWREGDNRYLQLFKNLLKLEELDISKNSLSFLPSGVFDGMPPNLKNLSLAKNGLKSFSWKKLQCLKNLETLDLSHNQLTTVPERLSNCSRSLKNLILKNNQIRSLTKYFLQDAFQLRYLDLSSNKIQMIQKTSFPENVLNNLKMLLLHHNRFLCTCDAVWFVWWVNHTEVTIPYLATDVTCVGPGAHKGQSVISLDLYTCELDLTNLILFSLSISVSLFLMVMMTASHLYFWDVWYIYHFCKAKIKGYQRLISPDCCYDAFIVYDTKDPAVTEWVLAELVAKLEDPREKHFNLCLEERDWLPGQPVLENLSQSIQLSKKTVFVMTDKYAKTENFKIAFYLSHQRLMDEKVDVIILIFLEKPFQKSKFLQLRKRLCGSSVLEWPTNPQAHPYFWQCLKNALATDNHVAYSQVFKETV
- experiment: TLR7 inhibition reporter assay (HEK-Blue SEAP)
- Assay type: cell-based
- protocol-conditions: HEK-Blue cells overexpressing human TLR7, stimulated with gardiquimod 7.5 µM, 22 h incubation
observable: pIC50
Lab note: report pIC50 as minus log10 of the concentration in molar units, number only.

>>> measured_value("COc1cc(-c2cc3[nH]c4ccc(C5CCCN(C(=O)CN(C)C)C5)cc4c3c(C)c2C)cn2ncnc12 (centres unmarked)")
8.48
>>> measured_value("Cc1c(-c2cc(C)c3c(c2)[nH]c2ccc(C4CCNCC4)cc23)cn(C)c(=O)c1C")
8.66
>>> measured_value("COc1cc(-c2cc3[nH]c4ccc(C5CN(C6COC6)C5)cc4c3c(C)c2C)cn2ncnc12")
8.25
>>> measured_value("COc1cc(-c2cc3[nH]c4ccc(C5CCNCC5)cc4c3cc2C)cn2ncnc12")
8.72

Next compound, pIC50 to be filled in.
[Q] Given the compound `COc1cc(-c2cc(C)c3c(c2)[nH]c2ccc(C4CCN(CC(C)(C)O)CC4)cc23)cn2ncnc12` , write its reported pIC50.
[A] 8.72

---

pIC50 values by entry
- test-system: human TLR9 (Homo sapiens)
- Sequence (Q9NR96 26-1032): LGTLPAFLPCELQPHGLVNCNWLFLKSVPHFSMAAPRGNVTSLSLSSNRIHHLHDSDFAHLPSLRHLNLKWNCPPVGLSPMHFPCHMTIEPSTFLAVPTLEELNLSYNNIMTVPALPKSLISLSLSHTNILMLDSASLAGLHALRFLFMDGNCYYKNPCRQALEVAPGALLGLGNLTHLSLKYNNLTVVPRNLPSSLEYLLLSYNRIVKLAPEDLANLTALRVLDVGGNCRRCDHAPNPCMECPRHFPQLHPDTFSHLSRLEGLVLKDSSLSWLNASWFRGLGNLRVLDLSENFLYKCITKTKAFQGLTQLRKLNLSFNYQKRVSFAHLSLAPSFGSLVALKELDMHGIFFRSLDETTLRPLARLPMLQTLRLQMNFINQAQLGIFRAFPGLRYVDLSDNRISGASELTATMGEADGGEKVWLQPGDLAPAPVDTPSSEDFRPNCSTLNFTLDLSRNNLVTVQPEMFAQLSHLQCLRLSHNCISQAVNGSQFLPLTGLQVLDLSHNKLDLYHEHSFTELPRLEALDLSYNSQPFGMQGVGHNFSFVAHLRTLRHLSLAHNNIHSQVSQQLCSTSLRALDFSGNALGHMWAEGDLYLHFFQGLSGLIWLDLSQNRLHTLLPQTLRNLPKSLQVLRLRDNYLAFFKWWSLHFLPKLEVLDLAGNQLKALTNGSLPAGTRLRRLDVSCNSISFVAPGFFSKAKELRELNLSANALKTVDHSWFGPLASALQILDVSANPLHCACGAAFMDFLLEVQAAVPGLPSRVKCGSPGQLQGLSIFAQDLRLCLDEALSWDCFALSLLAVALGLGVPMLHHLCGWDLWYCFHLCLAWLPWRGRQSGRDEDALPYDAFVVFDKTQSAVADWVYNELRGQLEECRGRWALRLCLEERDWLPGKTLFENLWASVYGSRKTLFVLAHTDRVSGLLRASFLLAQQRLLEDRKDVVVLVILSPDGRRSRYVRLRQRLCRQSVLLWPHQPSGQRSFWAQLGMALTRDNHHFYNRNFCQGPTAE
- experiment: TLR9 inhibition reporter assay (HEK-Blue SEAP)
- protocol-conditions: HEK-Blue cells overexpressing human TLR9, stimulated with ODN2006 5 nM, 22 h incubation
In textbook form, pIC50 equals minus log to base ten of the concentration in mol/L.

Worked set:
>>> measured_value("Cc1cc2c(cc1-c1cc(C)c3ncnn3c1)[nH]c1ccc(C3CCN(CC(C)(C)O)CC3)cc12")
6.47
>>> measured_value("COc1cc(-c2cc(C)c3c(c2)[nH]c2ccc(C4CCNCC4)cc23)cn2ncnc12")
6.82
>>> measured_value("COc1cc(-c2cc3[nH]c4ccc(C5CCCN(CC(C)(C)O)C5)cc4c3c(C)c2C)cn2ncnc12 (stereo not shown)")
6.23

[Q] Give reported pIC50 value for `Cc1cc2c(cc1-c1cc(C)c3ncnn3c1)[nH]c1ccc(C3CCNCC3)cc12`
[A] 6.50

[Q] Give the measured pIC50 for `Cc1cc(-c2cc(C)c3c(c2)[nH]c2ccc(C4CCNCC4)cc23)cc(C)n1`
[A] 7.40

[Q] Assign pIC50 to the following record: `CC(=O)Nc1ccc2c(c1)[nH]c1ccc(C3CCNCC3)cc12`
[A] 5.98

[Q] Please give the documented pIC50 of COc1cc(-c2cc3[nH]c4ccc(C5CCCN(CC#N)C5)cc4c3c(C)c2C)cn2ncnc12 (stereo not shown)
[A] 6.49
